# testTarget: fusion glycoprotein (F) of the RSV used in the GFP-based neutralization assay of Table 23 (respiratory syncytial virus)
# testSummary: cell-based or functional assay
attributeMeasured: RSV IC 50 (ng/mL), GFP-based in vitro neutralization

binder	readoutValue
MPH12-v29 (VH-FRGL-D62E/VL-S26A) (antibody, V domains shown, also called MPH12 VH-FRGL-D62E / MPH12 VL-S26A) VH: QVQLVESGGGLVKPGGSLRLSCAASGFTFSGFYMKWIRQAPGKGLEWVSSISASGSYTNYAESVEGRFTISRDNAKNSLYLQMNSLRAEDTAVYYCARGDSYCGASACHGEFFHKWGQGTLVTVSS VL: QSVLTQPPSVSGAPGQRVTISCTGSDANIGADFDVHWYQQLPGTAPKLLIYGNINRPSGVPDRFSGSRSGTSAFLAITRLQAEDEADYYCQSYDRSLHYVFGAGTKVTVL	60.3
MPH12-v34 (VH-FRGL-S63A/VL-FRGL-D25S) (antibody, V domains shown) VH: QVQLVESGGGLVKPGGSLRLSCAASGFTFSGFYMKWIRQAPGKGLEWVSSISASGSYTNYADAVEGRFTISRDNAKNSLYLQMNSLRAEDTAVYYCARGDSYCGASACHGEFFHKWGQGTLVTVSS VL: QSVLTQPPSVSGAPGQRVTISCTGSSSNIGADFDVHWYQQLPGTAPKLLIYGNINRPSGVPDRFSGSKSGTSASLAITGLQAEDEADYYCQSYDRSLHYVFGTGTKVTVL	48.6
